# procedure_details: Mammalian Toxicity, oral LD50, rat
# settings: in vivo
observation_type: LD50

A selection of reference data follows.
* CCC1(CC)COP(=S)(N(SN(C)C(=O)ON=C(C)SC)C(C)C)OC1 | > 2000 mg/kg
* CSC(C)=NOC(=O)N(C)SN(C1CCCCC1)P1(=S)OCC(C)(C)CO1 | > 8000 mg/kg

Here is another compound to look at.
In: Quickly give me recorded LD50 for CCC1(CC)COP(=S)(N(SN(C)C(=O)ON=C(C)SC)C2CCCCC2)OC1
Out: > 8000 mg/kg

---

# Test system: cabbage looper (CL)
# procedure_details: cabbage looper mortality test (bush lima bean leaf dip)
# Assay type: in vivo
# settings: Trichoplusia ni, foliar; CL, rate 11 ppm
// NB: equality with 90% counts as criterion not met; only mortality at 11 ppm strictly below is criterion met

Previously resolved entries follow.
* CCN(SN(C)C(=O)ON=C(C)SC)P1(=S)OCC(C)(C)CO1 | criterion met
* CCC1(CC)COP(=S)(N(SN(C)C(=O)ON=C(C)SC)C(C)C)OC1 | criterion not met
* CCC1(CC)COP(=S)(N(SN(C)C(=O)ON=C(C)SC)C2CCCCC2)OC1 | criterion met

Please turn your attention to the following entry.
In: Is it true that mortality at 11 ppm reported for CSC(C)=NOC(=O)N(C)SN(C(C)C)P1(=S)OCCO1 is less than 90%?
Out: criterion met
